experimental-details: In vitro metabolic stability in hepatic microsomes
Format: in vitro ADME, rat
cond: 10 min, liver microsomes, NADPH, compound 5 μM
readout-type: % Remaining after 10 min incubation with liver microsomes (%)

CCc1ccc(S(=O)(=O)c2nnn3c2nc(NC(C)C)c2sccc23)cc1 [Compound 2ce] = 4
COCCCNc1nc2c(S(=O)(=O)c3ccccc3)nnn2c2ccsc12 [Compound 2ab] = 27
COCCNc1nc2c(S(=O)(=O)c3ccc(C(C)C)cc3)nnn2c2ccsc12 [Compound 2bo] = 14

A. CCc1ccc(S(=O)(=O)c2nnn3c2nc(NCCCN2CCCC2=O)c2sccc23)cc1 [Compound 2cg]
B. CCCCNc1nc2c(S(=O)(=O)c3cc(C)ccc3C)nnn2c2ccsc12 [Compound 2cn]
Query block: Sort A and B by % Remaining after 10 min incubation with liver microsomes descending and give the first. Respond with the label that goes with your answer.
Result block: B
(B: 57%, A: 2%)

----------
test-system: UniProtKB Q8VHL0
experimental-details: Erythrocyte lysis assay of UT-B inhibition
Assay type: cell-based
Parameters: Screening was performed using mouse erythrocytes, which strongly express UT-B; endogenous in cells; host or cells: erythrocytes in whole blood of wild-type CD1 mice
cond: Table 1, commercially available analogues, erythrocyte lysis assay; read-out: IC50
pIC50: −log10 of the molar value.
readout-type: pIC50

Cc1ccc(S(=O)(=O)c2nnn3c2nc(NCC2CCCO2)c2sccc23)cc1 (stereo not drawn) [Compound 2ae] = 5.24
CCc1ccc(S(=O)(=O)c2nnn3c2nc(N(CC)CC)c2sccc23)cc1 [Compound 2bs] = 5.75
Cc1ccc(S(=O)(=O)c2nnn3c2nc(N2CCC(C(N)=O)CC2)c2sccc23)cc1C [Compound 2aq] = 5.67
CCc1ccc(S(=O)(=O)c2nnn3c2nc(NCc2ccc(F)cc2)c2sccc23)cc1 [Compound 2ca] = 6.42
CCc1ccc(S(=O)(=O)c2nnn3c2nc(NCCN(C)C)c2sccc23)cc1 [Compound 2ch] = 5.07

a. Cc1ccc(S(=O)(=O)c2nnn3c2nc(NCc2cccs2)c2sccc23)cc1C [Compound 2bd]
b. Cc1ccc(C)c(S(=O)(=O)c2nnn3c2nc(NCCC(C)C)c2sccc23)c1 [Compound 2cj]
c. NC(=O)C1CCN(c2nc3c(S(=O)(=O)c4cccc(Cl)c4)nnn3c3ccsc23)CC1 [Compound 2cv]
d. Cc1ccc(S(=O)(=O)c2nnn3c2nc(NCc2ccco2)c2sccc23)cc1C [Compound 2am]
Query block: Sort entries by pIC50 from minimum to maximum value. Put the labels in the requested order and list them out.
Result block: c, b, d, a
(c: 5.50, b: 5.84, d: 6.81, a: 7.43)

A. COCCNc1nc2c(S(=O)(=O)c3ccc(Cl)cc3)nnn2c2ccsc12 [Compound 2bh]
B. COc1ccccc1CNc1nc2c(S(=O)(=O)c3ccc(C)c(C)c3)nnn2c2ccsc12 [Compound 2as]
Query block: Consider entries A and B . Which has the numerically lower pIC50? Respond with the label that goes with your answer.
Result block: A
(A: 5.72, B: 5.98)

----------
test-system: human UT-B (Homo sapiens, UniProt Q13336)
Construct: endogenous in cells; host or cells: erythrocytes in human venous whole blood
Sequence (Q13336 whole entry): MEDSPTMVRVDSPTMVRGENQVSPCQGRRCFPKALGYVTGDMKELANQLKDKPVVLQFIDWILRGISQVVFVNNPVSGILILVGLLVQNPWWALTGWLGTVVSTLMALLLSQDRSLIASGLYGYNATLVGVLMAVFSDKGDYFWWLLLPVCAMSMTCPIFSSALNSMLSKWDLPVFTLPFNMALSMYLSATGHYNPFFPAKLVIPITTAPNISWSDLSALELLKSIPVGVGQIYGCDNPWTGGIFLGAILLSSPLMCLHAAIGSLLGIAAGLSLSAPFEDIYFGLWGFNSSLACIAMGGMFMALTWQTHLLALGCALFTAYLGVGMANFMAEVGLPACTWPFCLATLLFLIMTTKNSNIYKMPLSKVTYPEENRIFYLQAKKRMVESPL
experimental-details: Stopped-flow light scattering assay of erythrocyte urea transport, human erythrocytes
Type: cell-based
cond: urea influx, 100 mM inwardly directed urea gradient
readout-type: pIC50
Notebook: values listed as pIC50 are -log10 of the concentration (mol/L).

Query block: What value of pIC50 has been reported for the following compound? CCc1ccc(S(=O)(=O)c2nnn3c2nc(NCc2cccs2)c2sccc23)cc1 [UTBinh-14]
Result block: 7.99

----------
experimental-details: In vitro metabolic stability in hepatic microsomes
Assay type: in vitro ADME, rat
cond: 10 min, liver microsomes, NADPH, compound 5 μM
readout-type: % Remaining after 10 min incubation with liver microsomes (%)

Before answering, review these 8 worked examples.
CCc1ccc(S(=O)(=O)c2nnn3c2nc(NC(C)c2ccccc2)c2sccc23)cc1 (centres unmarked) = 34
COCCCNc1nc2c(S(=O)(=O)c3cc(C)ccc3C)nnn2c2ccsc12 = 26
CCc1ccc(S(=O)(=O)c2nnn3c2nc(NCc2ccco2)c2sccc23)cc1 = 12
CCCCNc1nc2c(S(=O)(=O)c3ccc(Br)cc3)nnn2c2ccsc12 = 76
Cc1ccc(S(=O)(=O)c2nnn3c2nc(NCc2ccc(Cl)cc2)c2sccc23)cc1C = 83
COCCNc1nc2c(S(=O)(=O)c3ccc(Br)cc3)nnn2c2ccsc12 = 53
CCc1ccc(S(=O)(=O)c2nnn3c2nc(NCCC(C)C)c2sccc23)cc1 = 59
Cc1ccc(S(=O)(=O)c2nnn3c2nc(NCc2ccccc2)c2sccc23)cc1C = 3

a. COc1ccccc1CNc1nc2c(S(=O)(=O)c3ccc(C)c(C)c3)nnn2c2ccsc12
b. Cc1ccc(S(=O)(=O)c2nnn3c2nc(N2CCOCC2)c2sccc23)cc1C
Query block: Consider entries a and b . Which has the numerically lower % Remaining after 10 min incubation with liver microsomes? Respond with the label that goes with your answer.
Result block: b

1. CCc1ccc(S(=O)(=O)c2nnn3c2nc(NCc2ccc(F)cc2)c2sccc23)cc1
2. O=S(=O)(c1ccc(Cl)cc1)c1nnn2c1nc(NCc1ccco1)c1sccc12
3. CCc1ccc(S(=O)(=O)c2nnn3c2nc(NCc2ccc(Cl)cc2)c2sccc23)cc1
Query block: Thanks in advance: please rank these 3 entries by % Remaining after 10 min incubation with liver microsomes, highest to lowest. Put the labels in the requested order and list them out.
Result block: 3, 1, 2
(3: 81%, 1: 41%, 2: 21%)

----------
test-system: mouse UT-B (Mus musculus)
Construct: Screening was performed using mouse erythrocytes, which strongly express UT-B; endogenous in cells; host or cells: erythrocytes in whole blood of wild-type CD1 mice
Sequence (Q8VHL0 1-384): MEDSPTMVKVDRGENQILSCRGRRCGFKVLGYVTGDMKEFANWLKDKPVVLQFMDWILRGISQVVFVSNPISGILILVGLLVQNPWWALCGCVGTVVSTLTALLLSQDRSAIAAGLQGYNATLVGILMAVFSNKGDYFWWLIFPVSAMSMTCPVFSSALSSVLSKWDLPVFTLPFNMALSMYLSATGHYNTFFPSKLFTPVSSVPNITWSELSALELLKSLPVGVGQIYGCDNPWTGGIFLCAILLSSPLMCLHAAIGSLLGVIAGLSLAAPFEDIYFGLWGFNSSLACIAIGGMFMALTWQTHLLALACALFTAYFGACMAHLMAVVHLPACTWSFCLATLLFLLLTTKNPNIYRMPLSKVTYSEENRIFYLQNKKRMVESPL
experimental-details: Stopped-flow light scattering assay of erythrocyte urea transport, mouse erythrocytes
Assay type: cell-based
cond: erythrocytes pre-loaded with 100 mM urea, mixed with urea-free PBS; read-out: IC50 urea efflux
readout-type: pIC50
Notebook: values listed as pIC50 are -log10 of the concentration (mol/L).

Query block: Report pIC50 for "CCc1ccc(S(=O)(=O)c2nnn3c2nc(NCc2cccs2)c2sccc23)cc1" tested on mouse UT-B (Mus musculus).
Result block: 7.57

----------
test-system: UT-B (Mus musculus)
experimental-details: Erythrocyte lysis assay of UT-B inhibition
Format: cell-based
Design: Screening was performed using mouse erythrocytes, which strongly express UT-B; endogenous in cells; host or cells: erythrocytes in whole blood of wild-type CD1 mice
cond: Table 1, commercially available analogues, erythrocyte lysis assay; read-out: IC50
Method: Screening was performed using mouse erythrocytes, which strongly express UT-B and are highly water permeable because the cells also express aquaporin-1 (AQP1) water channels. […] UT-B inhibition prevents acetamide efflux, allowing unopposed cell swelling and consequent cell lysis, which was recorded by reduced near-infrared light absorption at 710 nm. […]
readout-type: IC50 (nM)

CCc1ccc(S(=O)(=O)c2nnn3c2nc(NC(C)c2ccccc2)c2sccc23)cc1 (centres unmarked) = 585
CCCCNc1nc2c(S(=O)(=O)c3ccc(Cl)cc3)nnn2c2ccsc12 = 1260
CCc1ccc(S(=O)(=O)c2nnn3c2nc(NC2CCCC2)c2sccc23)cc1 = 1540
COc1ccc(CNc2nc3c(S(=O)(=O)c4ccc(C)cc4)nnn3c3ccsc23)cc1 = 1660
CCOCCCNc1nc2c(S(=O)(=O)c3ccc(C)c(C)c3)nnn2c2ccsc12 = 520

A. CCc1ccc(S(=O)(=O)c2nnn3c2nc(NCCC(C)C)c2sccc23)cc1
B. Cc1ccc(S(=O)(=O)c2nnn3c2nc(NCc2ccccc2)c2sccc23)cc1C
C. CCc1ccc(S(=O)(=O)c2nnn3c2nc(NCCOC)c2sccc23)cc1
Query block: Sort entries by IC50 from minimum to maximum value. Put the labels in the requested order and list them out.
Result block: C, A, B
(C: 334 nM, A: 662 nM, B: 1000 nM)

----------
test-system: mouse UT-B (Mus musculus)
Construct: Screening was performed using mouse erythrocytes, which strongly express UT-B; endogenous in cells; host or cells: erythrocytes in whole blood of wild-type CD1 mice
Sequence (Q8VHL0 1-384): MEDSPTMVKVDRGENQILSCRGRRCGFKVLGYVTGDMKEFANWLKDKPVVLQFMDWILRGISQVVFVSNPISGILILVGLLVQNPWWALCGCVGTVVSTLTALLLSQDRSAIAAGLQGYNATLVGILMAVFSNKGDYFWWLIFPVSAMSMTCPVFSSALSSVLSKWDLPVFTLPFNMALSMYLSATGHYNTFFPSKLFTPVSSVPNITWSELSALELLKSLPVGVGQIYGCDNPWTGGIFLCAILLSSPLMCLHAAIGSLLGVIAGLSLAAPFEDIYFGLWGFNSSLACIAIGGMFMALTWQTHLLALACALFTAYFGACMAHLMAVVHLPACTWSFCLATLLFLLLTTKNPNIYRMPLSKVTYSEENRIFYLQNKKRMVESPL
experimental-details: Stopped-flow light scattering assay of erythrocyte urea transport, mouse erythrocytes
Format: cell-based
cond: urea influx, 100 mM inwardly directed urea gradient; read-out: IC50 for mouse UT-B
readout-type: IC50 (µM)
Express it in µM; write the number only.

Query block: Report IC50 for "CCc1ccc(S(=O)(=O)c2nnn3c2nc(NCc2cccs2)c2sccc23)cc1" tested on mouse UT-B (Mus musculus).
Result block: 0.0251
